Entries and their ECL signal
molecular target: T1, rHuman IGF-1 sR, (IGF-1 sR), CF (R&D Systems Cat#391-GR) (human, UniProt P08069 31-932); experiment: ECL multispot (MSD) assay; antigen spotted on plate, Fab in solution;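 further: purified Fab incubated 1 hour at 20 °C in 1% BSA TBST on antigen-coated wells, detected with TAG antibody, ECL read on Sector Imager 2400, compared to each well's blank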
T1 construct: Bought soluble receptor; also called insulin-like growth factor-1 soluble receptor
reported.metric: ECL signal (ECL signal)

| binder | numeric.readout |
| --- | --- |
| Fab VH1-46_IGHD6-6*01_IGHJ1*01 S102A/S103P/S104F (APF) & L6_IGKJ1*01 S30W (Fab, V domains shown, Tested as Fab made in E. coli; The heavy chain vector (Plasmid A) adds CH1 with His and Flag tags, the kappa vector (Plasmid C) adds CL kappa; also called APF / S30W) VH: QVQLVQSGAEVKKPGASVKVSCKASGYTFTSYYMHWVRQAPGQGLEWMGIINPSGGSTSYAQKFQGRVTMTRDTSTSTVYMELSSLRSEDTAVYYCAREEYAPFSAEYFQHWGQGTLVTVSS VL: EIVLTQSPATLSLSPGERATLSCRASQSVWSYLAWYQQKPGQAPRLLIYDASNRATGIPARFSGSGSGTDFTLTISSLEPEDFAVYYCQQRSNWPPWTFGQGTKVEIKR | 157 |
| Fab VH1-46_IGHD6-6*01_IGHJ1*01 S102A/S103P/S104F (APF) & L6_IGKJ1*01 S30R (Fab, V domains shown, Tested as Fab made in E. coli; The heavy chain vector (Plasmid A) adds CH1 with His and Flag tags, the kappa vector (Plasmid C) adds CL kappa; also called APF / S30R) VH: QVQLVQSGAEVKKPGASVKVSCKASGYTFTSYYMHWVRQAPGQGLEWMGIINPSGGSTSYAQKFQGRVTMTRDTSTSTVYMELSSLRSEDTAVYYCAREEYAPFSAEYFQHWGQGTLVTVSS VL: EIVLTQSPATLSLSPGERATLSCRASQSVRSYLAWYQQKPGQAPRLLIYDASNRATGIPARFSGSGSGTDFTLTISSLEPEDFAVYYCQQRSNWPPWTFGQGTKVEIKR | 86 |
| Fab VH1-46_IGHD6-6*01_IGHJ1*01 S102A/S103P/S104F (APF) & L6_IGKJ1*01 S30T (Fab, V domains shown, Tested as Fab made in E. coli; The heavy chain vector (Plasmid A) adds CH1 with His and Flag tags, the kappa vector (Plasmid C) adds CL kappa; also called APF / S30T) VH: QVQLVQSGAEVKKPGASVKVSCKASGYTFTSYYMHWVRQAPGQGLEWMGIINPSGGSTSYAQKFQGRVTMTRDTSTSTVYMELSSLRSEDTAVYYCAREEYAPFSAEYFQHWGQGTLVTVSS VL: EIVLTQSPATLSLSPGERATLSCRASQSVTSYLAWYQQKPGQAPRLLIYDASNRATGIPARFSGSGSGTDFTLTISSLEPEDFAVYYCQQRSNWPPWTFGQGTKVEIKR | 204 |

Cited source for all entries: patent US20120316071A1
